Target: Cytochrome P450 2C19 (Homo sapiens) (UniProt P33261)
Sequence (P33261 whole entry, looked up): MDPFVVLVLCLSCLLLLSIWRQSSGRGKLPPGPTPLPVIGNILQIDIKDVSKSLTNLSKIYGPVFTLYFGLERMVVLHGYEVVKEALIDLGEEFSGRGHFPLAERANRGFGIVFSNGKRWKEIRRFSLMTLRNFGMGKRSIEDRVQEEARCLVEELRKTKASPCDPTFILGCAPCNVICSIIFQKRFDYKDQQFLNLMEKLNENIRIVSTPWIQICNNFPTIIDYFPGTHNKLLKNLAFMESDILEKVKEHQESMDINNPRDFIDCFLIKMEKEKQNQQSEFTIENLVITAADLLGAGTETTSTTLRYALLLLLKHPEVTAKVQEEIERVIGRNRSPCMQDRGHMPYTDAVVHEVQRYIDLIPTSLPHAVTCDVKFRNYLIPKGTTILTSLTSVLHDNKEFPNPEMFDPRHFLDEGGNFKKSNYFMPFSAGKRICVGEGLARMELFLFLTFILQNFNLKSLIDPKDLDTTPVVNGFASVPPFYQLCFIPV
Assay: blockers of cytochrome P450 2C19 activity – biochemical, luminescence, ADME assay, primary screen (AID 778);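 note: plate controls were negative control wells for no effect and 2.5 mM tranylcypromine positive control for full effect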
Details: CYP2C19 Supersomes, luciferin-H EGE luminescence, 30 min; at 5 µM; hits give high values
The whole screen tested about 96,000 compounds, of which about 20,000 (21%) were called active. Not all results are given here.
# inhibition values compiled below
# output: bare number, implied unit %

{"columns": ["compound", "measurement_target", "inhibition (%)"],
 "data": [
  ["O=c1oc2cc(O)ccc2cc1-c1ccc(F)cc1", "Cytochrome P450 2C19 (Homo sapiens) (UniProt P33261)", 32.1]
]}

Request: Would you mind telling me what inhibition value was observed for CCOc1ccc(C(=O)N(Cc2ccc(N(C)C)cc2)C2CCS(=O)(=O)C2)cc1 (centres undefined) ?
Result: 58.6

Request: Can you look up the measured inhibition of COc1ccc(CCn2nnnc2C(c2ccccc2)N2CCN(C)CC2)cc1OC (centres undefined) for me?
Result: 2.7

Request: Would you kindly share the measured inhibition for O=C(CN1C(=O)CC(c2ccccc2)=Nc2ccccc21)NC1CCCCC1 ?
Result: 52.2
